Just for reference, ChEMBL document CHEMBL1201862 is where these values come from.

System: MCF7
Experiment: NCI tumour cell line growth inhibition, 48 h
Active and inactive are the calls of the source. No stated cut-off is given here; in the data, active = GI50 up to about 1.1 µM and inactive = higher.
Just give me one of these, please: True (active), False (inactive)

// below: answered compounds
compound: Fc1ccc(C(OCCN2CCN(CCCc3ccccc3)CC2)c2ccc(F)cc2)cc1
experimental-system: MCF7
cat: False
//
compound: O=C1C(Nc2ccccc2)=CC2=NCCc3n[nH]c1c32
experimental-system: MCF7
cat: False
//
compound: Cc1c(N2C(=O)/C(=C/c3ccc(Cl)cc3)N=C2c2ccccc2)c(=O)n(-c2ccccc2)n1C
experimental-system: MCF7
cat: False
//
compound: CC12CCC([C@H](C(O)C3CCCCC3)C1=O)C2(C)C (stereo not given in full)
experimental-system: MCF7
cat: False

Qu. Assay outcome for CC(C)(C)OC(=O)NC(Cc1ccccc1)C(=O)N[C@H]1c2ccsc2/C(=N/O)[C@H]1O (stereo not given in full) : what was it?
Ans. False

Qu. Assay outcome for N#CC1C(=O)NC2=C(CCOc3c2ccc2ccccc32)C1c1ccc(F)cc1 (stereo not given) : what was it?
Ans. False

Qu. Assay outcome for "COC(=O)C1(OC(=O)Sc2ccccc2)CCN(C)CC1" : what was it?
Ans. False

Qu. Assay outcome for "COc1ccc(-c2nc(-c3cnccn3)n(Cc3ccccc3)n2)cc1" : what was it?
Ans. False

Qu. Assay outcome for "CN(C)CCNC(=O)c1cccc2cc3cc(O)ccc3nc12" : what was it?
Ans. True

Qu. Assay outcome for COc1cc2c(c(OC)c1OC)-c1ccc(OC)c(=O)cc1C(NC(=O)COc1ccccc1)CC2 (stereo not given) : what was it?
Ans. True

----------
Tested on: HOP-62
Test: NCI tumour cell line growth inhibition, 48 h
Activity calls are given as the source filed them. Rule as the data show it: active = GI50 up to about 1.1 µM and inactive = higher. Residues, ends and D or L forms follow the SMILES beside them. *: point of attachment. Boc = CC(C)(C)OC(=O)*
Just give me one of these, please: 1 (active), 0 (inactive)

molecule: CC(C)OP(=O)(c1ccccc1)c1ccc2c(c1)OCCOCCOCCOCCO2 (stereo not drawn)
experimental-system: HOP-62
cat: 0

Qu. Assay outcome for "O=[N+]([O-])/C(C(Cl)=C(Cl)Cl)=C(\NCc1ccccc1)Sc1ccccc1" : what was it?
Ans. 0

Qu. Assay outcome for CC(=O)OC1/C(=C/c2ccc([N+](=O)[O-])cc2)C[C@H]2[C@@H]3CC=C4C[C@@H](OC(C)=O)CC[C@]4(C)[C@H]3CC[C@]12C (stereo partly drawn) : what was it?
Ans. 0

Qu. Assay outcome for CC12CCC([C@H](C(O)C3CCCCC3)C1=O)C2(C)C (stereo partly drawn) : what was it?
Ans. 0

Qu. Assay outcome for "COc1cc(/C=C/C(=O)CC(=O)/C=C/c2ccc(O)c(OC)c2)ccc1O" : what was it?
Ans. 0

Qu. Assay outcome for CC(NC(=O)C(NC(=O)OC(C)(C)C)C(C)C)C(=O)N1CCCC1C(=O)NCC(=O)NC(C(=O)NCC(=O)O)C(C)C (stereo not drawn) (Boc-VAPGVG-OH; configuration not given here) : what was it?
Ans. 0

Qu. Assay outcome for C=CCCCCC1CCC2CCC(CCCCC=C)N12 (stereo not drawn) : what was it?
Ans. 0

Qu. Assay outcome for "O=c1c2ccccc2nc(Cc2nc(-c3ccc(Cl)cc3)cs2)n1-c1ccc(Cl)cc1" : what was it?
Ans. 0

Qu. Assay outcome for "COc1ccc(Nc2nc3ccccc3nc2C(=O)O)cc1" : what was it?
Ans. 0

Qu. Assay outcome for "Oc1ccc(-c2c3c(nc4c2CCc2ccc(Br)cc2-4)-c2cc(Br)ccc2CC3)cc1" : what was it?
Ans. 0

Qu. Assay outcome for CC(C)(C)OC(=O)NC(Cc1ccccc1)C(=O)N[C@H]1c2ccsc2/C(=N/O)[C@H]1O (stereo partly drawn) : what was it?
Ans. 0

Qu. Assay outcome for "COc1ccc(-c2nc(-c3cnccn3)n(Cc3ccccc3)n2)cc1" : what was it?
Ans. 0

Qu. Assay outcome for c1cc(-c2ccc(-c3ccc(C4=NC5CCCCC5N4)cc3)o2)ccc1C1=NC2CCCCC2N1 (stereo not drawn) : what was it?
Ans. 0

Qu. Assay outcome for O=C(Nc1ccn(C2CC(O)C(COC(c3ccccc3)(c3ccccc3)c3ccccc3)O2)c(=O)n1)c1ccccc1 (stereo not drawn) : what was it?
Ans. 0

----------
Tested on: DU-145
Experiment: NCI tumour cell line growth inhibition, 48 h
Calls of active or inactive are those of the source. No stated cut-off is given here; in the data, active = GI50 up to about 1.1 µM and inactive = higher.
measure-name: GI50

Check out these entries, answers already filled in.
molecule: O=C1/C(=C/c2ccc(Cl)cc2)Oc2cc(O)ccc21 [6-HYDROXY-4'-CHLORO AURONE]
GI50: 41.4 µM (inactive)
--
molecule: N#CCCN(CCC#N)c1ccc(/C=C2\N=C(c3ccccc3)N(c3ccc(F)cc3)C2=O)cc1
GI50: > 100 µM (inactive)
--
molecule: C[C@@H]1CC(=O)C[C@@H]2CC[C@H]3[C@@H]4CC[C@H](OC(=O)c5cccc6cc7ccccc7nc56)[C@H]4CC[C@@H]3[C@H]21
GI50: 14 µM (inactive)
--
molecule: COc1ccc(-n2c(-c3ccccc3)cc(-c3cccs3)c2-c2cccs2)cc1
GI50: > 100 µM (inactive)
--
molecule: O=C1OC(=O)c2c1cc1cc3c(cc1c2-c1ccc2c(c1)OCO2)OCO3
GI50: > 100 µM (inactive)
--
molecule: COc1ccc2c(c1O)[C@@]13CCCC=C1[C@@H](C2)[N+](C)(C)CC3
GI50: > 100 µM (inactive)

Batch request: GI50 per item, same order as input.
1. CCCCCCCCCCCCCCCCP(=O)([O-])OCC[N+](C)(C)C
2. O=C1/C(=C/c2ccc(Cl)cc2)N=C(c2ccccc2)N1c1nc2ccc(Sc3ccccc3)cc2[nH]1
3. COc1cc2c(c(OC)c1OC)-c1ccc(OC)c(=O)cc1C(NC(=O)COc1ccccc1)CC2 (centres undefined)
4. CCN(CC)CCO/N=C1\CC[C@H]2[C@@H]3CCc4cc(OC)ccc4[C@H]3CC[C@]12C
5. Cc1c(NC(=S)N/N=C\C(=N/NC(=S)Nc2c(C)n(C)n(-c3ccccc3)c2=O)c2ccccc2)c(=O)n(-c2ccccc2)n1C
6. O=c1[nH]nc(Cc2ccc(Cl)cc2)n1/N=C/c1cccs1

Ans.
1: 14.7 µM (inactive); 2: 35.3 µM (inactive); 3: < 0.01 µM (active); 4: 4.76 µM (inactive); 5: > 100 µM (inactive); 6: 99.8 µM (inactive)

----------
Tested on: M14
Assay: NCI tumour cell line growth inhibition, 48 h
Activity calls are given as the source filed them. No stated cut-off is given here; in the data, active = GI50 up to about 1.1 µM and inactive = higher.
Just give me one of these, please: 1 (active), -1 (inactive)

compound: CCC1OC(=O)CC(O)C(C)C(OC2OC(C)C(O)C(N(C)C)C2O)C(CC=O)CC(C)C(=O)/C=C/C2(C)OC2C1C (stereo not given)
experimental-system: M14
cat: -1

Qu. Assay outcome for "N#C/C(=C/c1ccco1)C(=O)c1ccccc1" : what was it?
Ans. -1

Qu. Assay outcome for O=C(CN1CCCCC1)N1CCc2c([nH]c3ccccc23)C1c1cccnc1 (stereo not given) : what was it?
Ans. -1

Qu. Assay outcome for Cc1ccc(S(=O)(=O)N/N=C(/c2nc3ccc([N+](=O)[O-])cc3nc2O)C(O)c2ccc(C(O)/C(=N\NS(=O)(=O)c3ccc(C)cc3)c3nc4ccc([N+](=O)[O-])cc4nc3O)cc2)cc1 (stereo not given) : what was it?
Ans. -1

Qu. Assay outcome for "Cc1ccc2nc(NC(=O)/C(Cc3nc4ccc(Cl)cc4nc3O)=N\NC(C)(C)C)sc2c1" : what was it?
Ans. -1

Qu. Assay outcome for "COc1ccc(/C=C(\C2=NC(=O)CS2)c2nc3ccccc3[nH]2)cc1" : what was it?
Ans. -1

Qu. Assay outcome for "COc1cc(/C=C\C(=O)O)ccc1OCc1ccccc1" : what was it?
Ans. -1

Qu. Assay outcome for COc1cc2c(c(OC)c1OC)-c1ccc(OC)c(=O)cc1C(NC(=O)COc1ccccc1)CC2 (stereo not given) : what was it?
Ans. 1

----------
Tested on: DU-145
Test: NCI tumour cell line growth inhibition, 48 h
Calls of active or inactive are those of the source. Cut-off read from the data, not from the text of the source: active = GI50 up to about 1.1 µM and inactive = higher.
Just give me one of these, please: 1 (yes) (active), 0 (no) (inactive)

// below: answered molecules
molecule: Cc1ccc(S(=O)(=O)OCC(=O)O)cc1
cat: 0 (no)

molecule: N/C(=N\c1c([N+](=O)[O-])cnc2ccccc12)N1CCOCC1
cat: 0 (no)

molecule: COc1ccc(CC2C(=O)NC(C)C(=O)N(C)C3C(=O)N(C)C(Cc4ccc(O)c(c4)Oc4ccc(cc4)C3O)C(=O)NC(C)C(=O)NC(C)C(=O)N2C)cc1.COc1ccc(CC2C(=O)NC(C)C(=O)N(C)C3Cc4ccc(cc4)Oc4cc(ccc4O)CC(C(=O)NC(C)C(=O)NC(C)C(=O)N2C)N(C)C3=O)cc1 (configuration not stated)
cat: 1 (yes)

molecule: COC1=CC(=O)O/C1=C(\OC)C1OC1c1ccccc1 (configuration not stated)
cat: 0 (no)

Qu. Assay outcome for CC(=O)OC1/C(=C/c2ccc([N+](=O)[O-])cc2)C[C@H]2[C@@H]3CC=C4C[C@@H](OC(C)=O)CC[C@]4(C)[C@H]3CC[C@]12C (some centres not stated) : what was it?
Ans. 0 (no)

Qu. Assay outcome for COc1ccc(/C=C2\CC3C4CC=C5C[C@@H](O)CC[C@]5(C)C4CC[C@]3(C)C2=O)cc1OC (some centres not stated) : what was it?
Ans. 0 (no)

Qu. Assay outcome for COc1cc(C2SC(=N)Nc3c2c(C)nn3C(=O)c2ccccc2O)ccc1O (configuration not stated) : what was it?
Ans. 0 (no)

Qu. Assay outcome for "O=C(O)c1ccccc1NCn1c(=S)sc2ccccc21" : what was it?
Ans. 0 (no)

Qu. Assay outcome for c1cn(C23C4C5C6C4C2C6C53)cn1 (configuration not stated) : what was it?
Ans. 0 (no)

Qu. Assay outcome for "COc1ccc(Nc2nc3ccccc3nc2C(=O)O)cc1OC" : what was it?
Ans. 0 (no)
